Data origin: patent US12187807B2

Assay Target: T1, biotinylated peptide representing the N-terminus of C5aR1 with tyrosine sulfation (Homo sapiens, UniProt P21730)
T1 construct: the N-terminus with tyrosine sulfation
T1 sequence (P21730 1-37): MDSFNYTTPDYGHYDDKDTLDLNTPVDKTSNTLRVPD
Assay Remarks: Epitope mapping by biolayer interferometry, N-terminus with tyrosine sulfation
Type: binding
Set-up: key: “+” indicates binding to the listed peptide; “−” indicates lack of binding to the listed peptide
Details: 10 μg/mL of antibody, biotinylated peptide on streptavidin biosensor

Molecule	Binding to Sulfated N-terminal peptide
clone 66: anti-C5aR1 Site I antibody; VH SEQ ID NO: 483, VL SEQ ID NO: 543 (antibody, V domains shown) VH: QVQLQQSDAELVKPGASVKISCKASGYTFIDHAIHWVKQRPEQGLEWIGYISPGNGEIKYNEKFKAKATLTADKSSSAAYMQLNSLTSADSAVYFCKRALFYYTGKYQPMDYWGQGTTVTDSS VL: DIVMTQSQKFMSTTAGDRVSITCKASQNVGSAVVWYQQKPGRSPKLLIYSSSIRYTGVPDRFTGSGSGTDFTLTINSVQSEDLADYFCQQYNSFPLTFGAGTKLEIK	+
clone 336v2-1: exemplary anti-C5aR1 antibody, Table 1C (antibody, V domains shown) VH: QVQLKQSGPGLVQSSQSLSITCTVSGFSLISYGVHWVRQSPGKGLEWLGVIWSGGSTDYNAAFKSRLSITKDNSKSQVFFKMNSLQADDTAIYYCAKNSQLGNAMDYWGQGTTVTVSS VL: DIVMSQSPSSLAVSAGEKVTMSCKSSQSLLSSRTRKNYLAWYQQKPGQSPKLLIYWASTRESGVPDRFTGSGSGTDFTLTISSVQAEDLALYFCNQSYDLLTFGAGTKLEIK	−
